Percent Effect overview
- System tested: Proteasome subunit beta (Trypanosoma cruzi) (UniProt O96673)
- Sequence (O96673 as listed by the source): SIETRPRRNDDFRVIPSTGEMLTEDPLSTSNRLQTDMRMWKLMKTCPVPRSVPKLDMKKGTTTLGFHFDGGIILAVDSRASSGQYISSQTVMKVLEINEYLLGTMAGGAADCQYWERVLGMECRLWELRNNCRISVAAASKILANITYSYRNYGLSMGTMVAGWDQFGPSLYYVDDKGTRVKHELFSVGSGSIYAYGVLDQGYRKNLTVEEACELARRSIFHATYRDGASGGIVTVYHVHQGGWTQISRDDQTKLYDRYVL
- Assay name: Trypanosoma cruzi proteasome chymotrypsin-like activity (TcProtChymo) assay. Further: in the data most compounds retested in dose-response had high values.
- Assay type: functional
- Design: scale not given: direction of the effect not stated beside the values
- Condition summary: 9.37 µM
Report the figure in % without appending any unit label.

[[record]]
compound = "CC(C)Oc1ccccc1CNC(=O)N1CCC(n2cncn2)CC1"
system_tested = "Proteasome subunit beta (Trypanosoma cruzi) (UniProt O96673)"
val = 17.3

[[record]]
compound = "c1cnn(Cc2cn3c(n2)CN(Cc2nccs2)CC3)c1"
system_tested = "Proteasome subunit beta (Trypanosoma cruzi) (UniProt O96673)"
val = 12.2

[[record]]
compound = "Cc1cncc(C(=O)N2CCCCC2c2nc(C)cs2)c1 (configuration not stated)"
system_tested = "Proteasome subunit beta (Trypanosoma cruzi) (UniProt O96673)"
val = 9.29

[[record]]
compound = "COCC1CC2(CCN(C(=O)c3cccn3C)CC2)CN1C(C)C (configuration not stated)"
system_tested = "Proteasome subunit beta (Trypanosoma cruzi) (UniProt O96673)"
val = 0.761

[[record]]
compound = "CN(C)CCN1CCO[C@@H]2CN(C(=O)c3cccs3)CC[C@@H]2C1"
system_tested = "Proteasome subunit beta (Trypanosoma cruzi) (UniProt O96673)"
val = 20.3

[[record]]
compound = "Cc1n[nH]c(C2CN(C(=O)c3ccco3)CCO2)n1 (configuration not stated)"
system_tested = "Proteasome subunit beta (Trypanosoma cruzi) (UniProt O96673)"
val = 4.51

[[record]]
compound = "Cc1nc(C)n(C2CCCN(C(=O)c3ccccc3C)C2)n1 (configuration not stated)"
system_tested = "Proteasome subunit beta (Trypanosoma cruzi) (UniProt O96673)"
val = 12.5

[[record]]
compound = "CCN(CC)C(=O)Cn1ccc2cc(NC(=O)C3CC3)ccc21"
system_tested = "Proteasome subunit beta (Trypanosoma cruzi) (UniProt O96673)"
val = 14.9


Data request: # lookup: Percent Effect of COCCC(=O)N1CCC2(COCc3cnc(-c4ccccc4)nc32)C1 (configuration not stated)
Data returned: 1.15

Data request: # repeat for `Nc1nccc(NCc2cc3n(n2)CCCN(C2CCCCC2)C3)n1`
Data returned: 24.4

Data request: # repeat for `CCc1noc(CNc2ccc(F)cc2OCC2CC2)n1`
Data returned: 9.83

Data request: # repeat for O=C1CC(c2cccs2)c2snc(C(=O)O)c2N1 (configuration not stated)
Data returned: 2.63

###

- System tested: Ubiquitin-activating enzyme e1, putative (Leishmania donovani (strain BPK282A1)) (UniProt E9BSI1)
- Sequence (E9BSI1 as listed by the source): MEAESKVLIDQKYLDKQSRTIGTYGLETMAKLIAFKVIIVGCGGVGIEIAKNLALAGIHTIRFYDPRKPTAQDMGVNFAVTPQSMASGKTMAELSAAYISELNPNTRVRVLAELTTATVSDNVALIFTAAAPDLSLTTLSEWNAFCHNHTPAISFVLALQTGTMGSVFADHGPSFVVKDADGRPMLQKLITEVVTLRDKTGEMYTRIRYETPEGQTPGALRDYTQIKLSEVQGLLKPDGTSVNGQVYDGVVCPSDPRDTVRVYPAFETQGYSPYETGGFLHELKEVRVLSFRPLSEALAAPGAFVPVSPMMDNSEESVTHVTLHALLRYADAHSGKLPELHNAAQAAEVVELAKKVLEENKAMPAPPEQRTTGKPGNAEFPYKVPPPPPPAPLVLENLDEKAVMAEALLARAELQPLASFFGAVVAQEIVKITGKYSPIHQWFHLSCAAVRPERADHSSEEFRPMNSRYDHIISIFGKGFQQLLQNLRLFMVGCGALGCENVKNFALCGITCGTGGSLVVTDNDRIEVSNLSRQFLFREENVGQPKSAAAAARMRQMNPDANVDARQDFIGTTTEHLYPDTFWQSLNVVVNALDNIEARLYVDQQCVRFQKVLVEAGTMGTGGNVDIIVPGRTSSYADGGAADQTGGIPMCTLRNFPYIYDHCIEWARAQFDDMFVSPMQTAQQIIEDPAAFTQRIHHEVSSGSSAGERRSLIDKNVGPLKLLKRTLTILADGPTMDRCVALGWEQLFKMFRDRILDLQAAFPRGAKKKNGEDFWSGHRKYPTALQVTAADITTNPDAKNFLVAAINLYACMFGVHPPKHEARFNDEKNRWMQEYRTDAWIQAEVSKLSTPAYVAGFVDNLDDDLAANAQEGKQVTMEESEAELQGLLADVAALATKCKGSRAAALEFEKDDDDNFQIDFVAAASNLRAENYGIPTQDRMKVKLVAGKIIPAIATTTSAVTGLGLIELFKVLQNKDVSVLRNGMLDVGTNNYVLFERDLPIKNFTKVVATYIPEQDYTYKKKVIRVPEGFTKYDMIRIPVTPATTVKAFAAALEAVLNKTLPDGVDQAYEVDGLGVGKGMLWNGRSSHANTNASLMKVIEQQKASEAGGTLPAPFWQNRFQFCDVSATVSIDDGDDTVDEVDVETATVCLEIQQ
- Assay name: Leishmania donovani Ubiquitin Activating Enzyme (LdE1)
- Type: functional
- Parameters: scale not given: direction of the effect not stated beside the values
- Condition summary: 30 µM
Results with a measured potency or affinity are listed apart.
Measured property: Percent Effect (%)
Report the figure in % without appending any unit label.

Data request: # lookup: Percent Effect of `CC(C)n1cc(S(=O)(=O)N2CCCCC2)cn1`
Data returned: 14.7

Data request: # repeat for `CCOc1ccccc1OC1CCN(C(=O)c2cc[nH]n2)CC1`
Data returned: 13.2

Data request: # repeat for O=C(c1cccc(CN2CCCC2)c1)N1CCCC(n2cncn2)C1 (centres undefined)
Data returned: 21.6

Data request: # repeat for CN(C)C(C(=O)N1CCC(N2CCSCC2)CC1)c1ccccc1F (centres undefined)
Data returned: 12.5

Data request: # repeat for `CCCn1ccc(C(=O)N2CCC(C)CC2)n1`
Data returned: 10.4

Data request: # repeat for `CN(C)CCN1CCO[C@@H]2CN(C(=O)c3cccs3)CC[C@@H]2C1`
Data returned: 10.8

Data request: # repeat for Cc1cnn(CC2CCCCN2Cc2nc(N)c3ccccc3n2)c1 (centres undefined)
Data returned: 10.1

Data request: # repeat for CCc1ccc(C(=O)Nc2ccc(CC3CC(=O)NC3=O)cc2)cc1 (centres undefined)
Data returned: 8.22

Data request: # repeat for Cn1cc(C2CCCN2C(=O)c2ccc(Br)o2)cn1 (centres undefined)
Data returned: 13.2

Data request: # repeat for `CS(=O)(=O)CC(=O)N1C[C@H]2CCC[C@@]2(COCc2ccccn2)C1`
Data returned: 2.7

Data request: # repeat for CCc1c(C(=O)NC2CCS(=O)(=O)C2)cnn1-c1ccc(F)cc1 (centres undefined)
Data returned: 15.2

Data request: # repeat for `CCN(CC)C(=O)Nc1cc2c(cc1SC)OCCO2`
Data returned: 8.11

Data request: # repeat for O=C(CCCc1cn[nH]c1)N1CCOCC(O)C1 (centres undefined)
Data returned: 0

Data request: # repeat for `Cc1cc(C[C@@H]2COC[C@@H]2NC(=O)CN2CCCC2)on1`
Data returned: 2.74

Data request: # repeat for `COc1ccc(S(=O)(=O)N2CCC(S(C)(=O)=O)CC2)cc1C`
Data returned: 7.79

Data request: # repeat for CC(=O)N1CCC(Cc2cnc(-c3c(C)n[nH]c3C)cn2)C1 (centres undefined)
Data returned: 0

Data request: # repeat for `Cc1cccc(CN2CC3(CCNCC3)OCC2=O)n1`
Data returned: 2.7

Data request: # repeat for `CN(C)C(=O)N1CCN(Cc2ccccc2)[C@@H]2CS(=O)(=O)C[C@@H]21`
Data returned: 2.7

Data request: # repeat for CC(C(N)=O)N(C)CCCc1cc(-c2ccccc2)no1 (centres undefined)
Data returned: 13.5

Data request: # repeat for O=C(c1ccccc1OCC1CC1)N1CCCC(n2ccnc2)C1 (centres undefined)
Data returned: 1.27

Data request: # repeat for CCC1CN(C(=O)Nc2cnc3c(cnn3C(C)C)c2)CCO1 (centres undefined)
Data returned: 13.5

Data request: # repeat for CCCc1nc(CN2CCOC(Cn3cncn3)C2)no1 (centres undefined)
Data returned: 11.4

Data request: # repeat for `Brc1cc2c(cc1CN1CCC(N3CCCCC3)CC1)OCCO2`
Data returned: -1.39

Data request: # repeat for `O=C(Nc1ccc(F)cc1F)Nc1c[nH]c(=O)[nH]c1=O`
Data returned: 10.4

###

- System: Trypanosoma cruzi
- Assay name: Trypanosoma cruzi phosphomannomutase and mannose-1-phosphate guanylyltransferase assay
- Format: functional
- Set-up: scale not given: direction of the effect not stated beside the values
- Condition summary: 10 µM
Percent Effect overview

The following compounds have reported results that may help.
[[record]]
compound = "Cc1cnn(CCNCc2ccc(OCC(N)=O)cc2)c1"
val = "3.8%"

[[record]]
compound = "O=C(c1ccco1)N1C[C@@H]2OCCN(CCN3CCCC3)[C@@H]2C1"
val = "-1.07%"

[[record]]
compound = "CN(C)c1nc2c(c(N3CCC(O)CC3)n1)CN(CC1CCNC1)CC2 (stereo not drawn)"
val = "0.193%"

[[record]]
compound = "Cc1ccc(F)c(C(=O)N2CCN(S(C)(=O)=O)[C@@H](C)C2)c1"
val = "6.86%"

[[record]]
compound = "Cc1nc(C)n(CC2CCCN(CC(=O)Nc3c(C)n[nH]c3C)C2)n1 (stereo not drawn)"
val = "3.76%"

[[record]]
compound = "CN(C)c1ncnc2c1CCN(CC1CCOC1)CC2 (stereo not drawn)"
val = "-3.42%"


Data request: # lookup: Percent Effect of CCc1noc(C2CCCCN2C(=O)c2nnc3ccccc3n2)n1 (stereo not drawn)
Data returned: 3.54%

Data request: # repeat for `CCNC(=O)c1nnn(Cc2ccccc2)c1OC`
Data returned: -0.197%

###

- System tested: Chromo domain-containing protein 1 (Saccharomyces cerevisiae (strain ATCC 204508 / S288c) (Baker's yeast))
- Assay name: ScCHD-1 Enzyme Inhibition Assay; further: in the data most compounds retested in dose-response had high values
- Type: functional
- Set-up: scale not given: direction of the effect not stated beside the values
- Condition summary: 30 µM
Measured property: Percent Effect (%)
Report the figure in % without appending any unit label.

The following compounds have reported results that may help.
[[record]]
compound = "Cc1nn(C)c2cnn(C(C)C(=O)NCc3cccnc3)c12 (stereo unspecified)"
measured_property = "Percent Effect"
val = -9.71

[[record]]
compound = "CCOc1ccc(Cl)c(C(=O)N2CCN(CCO)CC2)n1"
measured_property = "Percent Effect"
val = -4.45

[[record]]
compound = "COc1ccc(CN2C[C@@H]3CCCO[C@@H]3[C@H](NS(C)(=O)=O)C2)cc1"
measured_property = "Percent Effect"
val = -6.84

[[record]]
compound = "Cn1ncc2c(NCCC34CCCN3CCC4)nc(C3CCCC3)nc21"
measured_property = "Percent Effect"
val = -5.71


Data request: # lookup: Percent Effect of `Cc1nccc(CNC(=O)NCCOc2ccc(F)c(F)c2)n1`
Data returned: -9.47

Data request: # repeat for `CC(C)n1ccnc1CN1CCCN(C(=O)COC2CCCC2)CC1`
Data returned: -6.72

###

Percent Effect overview
- System tested: Arginase-2, mitochondrial (Homo sapiens)
- Sequence (whole entry): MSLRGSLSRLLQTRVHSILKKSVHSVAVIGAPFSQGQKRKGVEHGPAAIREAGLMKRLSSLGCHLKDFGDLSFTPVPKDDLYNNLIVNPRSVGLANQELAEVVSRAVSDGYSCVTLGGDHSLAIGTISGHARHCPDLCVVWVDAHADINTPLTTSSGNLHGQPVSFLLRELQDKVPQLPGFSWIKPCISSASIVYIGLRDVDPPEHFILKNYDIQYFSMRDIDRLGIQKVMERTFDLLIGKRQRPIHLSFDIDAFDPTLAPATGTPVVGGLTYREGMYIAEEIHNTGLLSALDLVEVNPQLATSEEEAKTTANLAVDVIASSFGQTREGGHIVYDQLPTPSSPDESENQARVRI
- Assay name: in vitro enzyme assay to detect the production of urea directly proportional to the activity of Arginase II; further: in the data most compounds retested in dose-response had high values
- Type: functional
- Design: scale not given: direction of the effect not stated beside the values
- Condition summary: 33.3 µM
Report the figure in % without appending any unit label.

[[record]]
compound = "O=C(CCCc1cn[nH]c1)N1CCOCC(O)C1 (stereo not given)"
val = -0.455

[[record]]
compound = "Cc1ccc(NC(C)C(=O)NCc2cccs2)cc1C (stereo not given)"
val = -4.54


Shift focus to the following entry.
Data request: # lookup: Percent Effect of `c1ccc(CN2CC[C@@H]3O[C@H](COCc4ccncc4)CC[C@@H]32)nc1`
Data returned: 5.83
